These entries and their values trace back to paper PMC3375269.

Molecular target: T1, Muscarinic acetylcholine receptor M1 (Homo sapiens, UniProt P11229)
T1 chain: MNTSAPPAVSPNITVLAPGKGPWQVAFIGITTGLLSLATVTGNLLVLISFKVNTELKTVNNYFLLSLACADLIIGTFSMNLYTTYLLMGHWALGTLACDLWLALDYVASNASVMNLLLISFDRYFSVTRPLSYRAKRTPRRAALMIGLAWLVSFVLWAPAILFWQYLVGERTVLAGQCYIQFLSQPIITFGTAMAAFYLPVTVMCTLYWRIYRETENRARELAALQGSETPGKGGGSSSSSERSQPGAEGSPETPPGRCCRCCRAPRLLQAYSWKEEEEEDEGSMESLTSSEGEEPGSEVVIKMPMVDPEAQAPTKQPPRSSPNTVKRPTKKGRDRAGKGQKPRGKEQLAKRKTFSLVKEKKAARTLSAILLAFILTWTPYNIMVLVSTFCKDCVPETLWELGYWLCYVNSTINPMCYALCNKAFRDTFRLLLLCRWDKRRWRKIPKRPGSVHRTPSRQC
Experiment: [3H]-NMS equilibrium inhibition binding
# maps each entry to its Ki
Number in nM, nothing else.

Muscarinic toxin 1 (MT1) (protein) LTCVTSKSIFGITTENCPDGQNLCFKKWYYIVPRYSDITWGCAATCPKPTNVRETIRCCETDKCNE
24

Query: Ki; subject: Muscarinic toxin 7 (MT7) (protein) LTCVKSNSIWFPTSEDCPDGQNLCFKRWQYISPRMYDFTRGCAATCPKAEYRDVINCCGTDKCNK 0.034
